Documented Activity of mutant relative to wild-type Gaussia luciferase without the signal peptide across a set of molecules
# Protocol Description: Luminescence activity assay of purified Gaussia luciferase mutants on coelenterazine
# Type: biochemical
# Parameters: key: ratio of mutant luminescence intensity to wild-type Gaussia luciferase
# Condition Info: Substrate CTZ (Table 16)
Assay Metric: Activity of mutant relative to wild-type Gaussia luciferase without the signal peptide

# Molecule, Value Observed
rows = [
    ("A42G Q152H T167G S170T G174N K178S A182Y G183A: Gaussia luciferase mutant (protein, SIGNAL (1)..(17), Gaussia luciferase mutant) MGVKVLFALICIAVAEAKPTENNEDFNIVAVASNFATTDLDGDRGKLPGKKLPLEVLKEMEANARKAGCTRGCLICLSHIKCTPKMKKFIPGRCHTYEGDKESAQGGIGEAIVDIPEIPGFKDLEPMEQFIAQVDLCVDCTTGCLKGLANVHCSDLLKKWLPQRCAGFATKIQNQVDSIKGYAGD", 0.568),
    ("Q152H Q163D T167S S170N A182L G183A: Gaussia luciferase mutant (protein, SIGNAL (1)..(17), Gaussia luciferase mutant) MGVKVLFALICIAVAEAKPTENNEDFNIVAVASNFATTDLDADRGKLPGKKLPLEVLKEMEANARKAGCTRGCLICLSHIKCTPKMKKFIPGRCHTYEGDKESAQGGIGEAIVDIPEIPGFKDLEPMEQFIAQVDLCVDCTTGCLKGLANVHCSDLLKKWLPDRCASFANKIQGQVDKIKGLAGD", 1.197),
]
